# target system: S2-receptor (Rattus norvegicus)
# Construct: Caudal arteries from fasted male rats; from tissue; host or cells: rat caudal artery, helical strips
# assay method text: antagonistic activity on the effect of serotonin on the caudal artery of the rat (caudal artery test)
# cond: rat caudal artery strips; serotonin 40 ng/ml; 5 minutes after adding the drug; read-out: ED50 (minimal concentration which reduces the amplitude of the serotonin-induced contraction to at least 50% of its normal value) (converted)
Where a name gives a salt, the structure may show the parent alone.
quantity: IC50 (pM)

{"compound": "Cc1nc2n(c(=O)c1CCN1CCC(=C(c3ccccc3)c3ccccc3)CC1)CCS2 [Compound 107, dihydrochloride]", "target system": "S2-receptor (Rattus norvegicus)", "IC50 / pM": 1.08}
{"compound": "Cc1nc2scc(C)n2c(=O)c1CCN1CCC(=C(c2ccccc2)c2ccccc2)CC1", "target system": "S2-receptor (Rattus norvegicus)", "IC50 / pM": 0.702}
{"compound": "Cc1nc2ccc(Cl)cn2c(=O)c1CCN1CCC(=C(c2ccc(F)cc2)c2ccc(F)cc2)CC1", "target system": "S2-receptor (Rattus norvegicus)", "IC50 / pM": 1.4}
{"compound": "Cc1nc2n(c(=O)c1CCN1CCC(=C(c3ccc(O)cc3)c3ccc(F)cc3)CC1)CCCC2", "target system": "S2-receptor (Rattus norvegicus)", "IC50 / pM": 1.33}
{"compound": "Cc1cccc(C(=C2CCN(CCc3c(C)nc4sccn4c3=O)CC2)c2ccccc2)c1", "target system": "S2-receptor (Rattus norvegicus)", "IC50 / pM": 0.702}

1: Cc1nc2n(c(=O)c1CCN1CCC(=C(c3ccc(O)cc3)c3ccc(F)cc3)CC1)CCCS2
2: Cc1nc2sc(C)c(C)n2c(=O)c1CCN1CCC(=C(c2ccc(F)cc2)c2ccc(F)cc2)CC1
Parameter metric = IC50. Return the lower-valued option from 1 and 2 . Pick one and reply with its label.
2

----------
# target system: S2-receptor (Rattus norvegicus, UniProt P14842)
# Construct: Caudal arteries from fasted male rats; from tissue; host or cells: rat caudal artery, helical strips
# Sequence (P14842 whole entry): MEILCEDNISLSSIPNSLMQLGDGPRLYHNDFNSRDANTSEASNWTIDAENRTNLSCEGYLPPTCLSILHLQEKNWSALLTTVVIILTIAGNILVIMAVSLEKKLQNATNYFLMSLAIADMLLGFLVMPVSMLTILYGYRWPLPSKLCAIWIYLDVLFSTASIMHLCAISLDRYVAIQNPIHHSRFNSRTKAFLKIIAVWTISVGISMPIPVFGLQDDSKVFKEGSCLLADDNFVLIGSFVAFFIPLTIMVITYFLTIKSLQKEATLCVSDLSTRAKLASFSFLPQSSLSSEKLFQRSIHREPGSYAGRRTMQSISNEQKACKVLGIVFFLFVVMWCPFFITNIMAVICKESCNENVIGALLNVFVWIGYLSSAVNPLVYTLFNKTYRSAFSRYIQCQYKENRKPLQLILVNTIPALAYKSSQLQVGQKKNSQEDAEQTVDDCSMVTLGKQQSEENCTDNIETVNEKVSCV
# assay method text: antagonistic activity on the effect of serotonin on the caudal artery of the rat (caudal artery test)
# cond: rat caudal artery strips; serotonin 40 ng/ml; 5 minutes after adding the drug; read-out: ED50 (minimal concentration which reduces the amplitude of the serotonin-induced contraction to at least 50% of its normal value) (converted)
quantity: IC50 (pM)

1: Cc1nc2n(c(=O)c1CCN1CCC(=C(c3ccc(F)cc3)c3cccnc3)CC1)CCCC2
2: Cc1nc2sccn2c(=O)c1CCN1CCC(=C(c2ccc(F)cc2)c2cccc(C(F)(F)F)c2)CC1
Could you point out whether the larger IC50 belongs to 1 or to 2 ? Pick one and reply with its label.
1

A: Cc1ccc(C(=C2CCN(CCc3c(C)nc4n(c3=O)CCCC4)CC2)c2ccc(F)cc2)cc1 [Compound 42]
B: Cc1cccc(C(=C2CCN(CCc3c(C)nc4n(c3=O)CCCS4)CC2)c2ccccc2)c1
C: Cc1ccc(C(=C2CCN(CCc3c(C)nc4scc(C)n4c3=O)CC2)c2ccc(F)cc2)cc1
List the 3 entries from lowest IC50 to highest IC50 value. Kindly provide the labels arranged according to the requested ordering.
C, B, A
(C: 0.656 pM, B: 1.19 pM, A: 4.66 pM)

a: Cc1nc2ccccn2c(=O)c1CCN1CCC(=C(c2ccc(F)cc2)c2ccc(F)cc2)CC1 [Compound 2]
b: Cc1nc2ccccn2c(=O)c1CCN1CCC(=C(c2ccc(F)cc2)c2cccc(C(F)(F)F)c2)CC1
c: Cc1cccc(C(=C2CCN(CCc3c(C)nc4ccccn4c3=O)CC2)c2ccc(F)cc2)c1
List the 3 entries from lowest IC50 to highest IC50 value. Kindly provide the labels arranged according to the requested ordering.
c, a, b
